# test-target: T1, native mouse MET on living cells (mouse, UniProt P16056 25-1379)
# T1 construct: whole, on cells; also called Mouse cells (MLP29); mouse epithelial cells expressing MET
# assay-text: flow cytometry, MLP29 cells

{"binder": "71G3 chimeric llama-human IgG1 mAb (antibody, V domains shown, llama VH on human IgG1 CH1-CH2-CH3, llama VL on human lambda CL) VH: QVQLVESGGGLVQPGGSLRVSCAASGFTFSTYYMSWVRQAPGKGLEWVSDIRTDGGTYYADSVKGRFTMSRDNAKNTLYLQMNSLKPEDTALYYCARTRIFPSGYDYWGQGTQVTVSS VL: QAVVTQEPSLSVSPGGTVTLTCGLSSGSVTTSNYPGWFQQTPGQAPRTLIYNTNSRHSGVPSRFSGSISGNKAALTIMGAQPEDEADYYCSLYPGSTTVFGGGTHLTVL", "EMAX": "116 % relative to control"}
{"binder": "72F8 chimeric llama-human IgG1 mAb (antibody, V domains shown, llama VH on human IgG1 CH1-CH2-CH3, llama VL on human lambda CL) VH: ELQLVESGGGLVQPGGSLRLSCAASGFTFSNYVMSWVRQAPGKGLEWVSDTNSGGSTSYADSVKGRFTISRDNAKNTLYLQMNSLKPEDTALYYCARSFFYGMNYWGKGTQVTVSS VL: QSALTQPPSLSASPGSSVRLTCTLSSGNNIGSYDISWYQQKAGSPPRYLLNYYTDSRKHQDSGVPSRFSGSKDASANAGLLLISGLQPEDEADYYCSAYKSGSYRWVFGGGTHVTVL", "EMAX": "172 % relative to control"}
{"binder": "74C8 chimeric llama-human IgG1 mAb (antibody, V domains shown, llama VH on human IgG1 CH1-CH2-CH3, llama VL on human lambda CL) VH: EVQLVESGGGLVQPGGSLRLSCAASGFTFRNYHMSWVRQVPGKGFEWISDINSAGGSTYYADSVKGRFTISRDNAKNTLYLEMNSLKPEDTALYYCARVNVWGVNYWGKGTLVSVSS VL: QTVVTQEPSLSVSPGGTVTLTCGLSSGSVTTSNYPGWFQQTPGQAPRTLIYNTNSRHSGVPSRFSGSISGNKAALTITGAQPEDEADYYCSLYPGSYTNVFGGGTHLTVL", "EMAX": "73.8 % relative to control"}
{"binder": "71A3 chimeric llama-human IgG1 mAb (antibody, V domains shown, llama VH on human IgG1 CH1-CH2-CH3, llama VL on human lambda CL) VH: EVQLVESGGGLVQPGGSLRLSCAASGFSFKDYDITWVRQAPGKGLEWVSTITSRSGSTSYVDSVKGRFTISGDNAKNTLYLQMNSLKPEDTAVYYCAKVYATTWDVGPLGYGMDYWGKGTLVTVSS VL: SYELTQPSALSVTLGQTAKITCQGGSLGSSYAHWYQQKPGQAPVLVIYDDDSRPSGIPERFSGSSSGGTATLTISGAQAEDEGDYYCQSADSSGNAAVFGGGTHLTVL", "EMAX": "144 % relative to control"}
{"binder": "71G2 chimeric llama-human IgG1 mAb (antibody, V domains shown, llama VH on human IgG1 CH1-CH2-CH3, llama VL on human lambda CL) VH: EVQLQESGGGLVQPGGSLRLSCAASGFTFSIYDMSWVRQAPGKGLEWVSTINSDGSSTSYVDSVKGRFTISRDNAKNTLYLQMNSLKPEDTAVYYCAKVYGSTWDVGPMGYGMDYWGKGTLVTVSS VL: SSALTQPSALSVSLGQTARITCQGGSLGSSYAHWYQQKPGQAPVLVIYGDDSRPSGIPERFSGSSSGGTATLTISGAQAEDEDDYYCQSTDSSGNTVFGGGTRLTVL", "EMAX": "130 % relative to control"}
